Target of assay: Tyrosine-protein kinase ABL2 (Homo sapiens) (UniProt P42684)
Sequence (P42684 whole entry): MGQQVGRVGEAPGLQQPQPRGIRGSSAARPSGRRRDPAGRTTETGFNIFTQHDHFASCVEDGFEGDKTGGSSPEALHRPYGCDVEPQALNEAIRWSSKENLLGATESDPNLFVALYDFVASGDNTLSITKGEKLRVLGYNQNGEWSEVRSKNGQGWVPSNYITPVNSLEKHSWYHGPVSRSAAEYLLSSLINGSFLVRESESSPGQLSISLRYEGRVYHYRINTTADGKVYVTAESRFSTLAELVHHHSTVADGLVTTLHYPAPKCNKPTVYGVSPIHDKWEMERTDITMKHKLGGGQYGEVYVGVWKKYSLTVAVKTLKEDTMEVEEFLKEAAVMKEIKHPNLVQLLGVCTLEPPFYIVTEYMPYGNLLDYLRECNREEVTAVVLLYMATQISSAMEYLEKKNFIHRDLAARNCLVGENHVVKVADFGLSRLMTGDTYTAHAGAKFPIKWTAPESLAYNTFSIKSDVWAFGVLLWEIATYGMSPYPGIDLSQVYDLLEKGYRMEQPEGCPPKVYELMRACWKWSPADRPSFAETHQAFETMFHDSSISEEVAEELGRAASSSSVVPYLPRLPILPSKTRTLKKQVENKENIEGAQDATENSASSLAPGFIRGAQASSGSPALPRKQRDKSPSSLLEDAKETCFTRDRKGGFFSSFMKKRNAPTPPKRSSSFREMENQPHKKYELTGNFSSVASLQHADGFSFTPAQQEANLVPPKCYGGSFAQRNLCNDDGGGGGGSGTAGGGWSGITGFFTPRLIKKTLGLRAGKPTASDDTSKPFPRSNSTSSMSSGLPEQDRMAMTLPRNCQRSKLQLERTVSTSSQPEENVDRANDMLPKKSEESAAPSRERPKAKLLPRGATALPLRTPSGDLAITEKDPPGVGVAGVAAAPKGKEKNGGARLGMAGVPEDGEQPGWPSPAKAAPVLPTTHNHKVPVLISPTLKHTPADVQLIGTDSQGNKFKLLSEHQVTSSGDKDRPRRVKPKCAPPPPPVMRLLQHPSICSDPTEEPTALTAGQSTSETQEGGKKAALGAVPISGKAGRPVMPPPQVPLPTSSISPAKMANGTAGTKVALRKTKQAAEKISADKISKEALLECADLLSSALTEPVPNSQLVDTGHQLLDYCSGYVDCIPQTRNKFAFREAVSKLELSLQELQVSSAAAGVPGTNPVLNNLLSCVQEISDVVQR
Test parameters: at 0.1 µM
Reported metric: inhibition (%)
State just the number; it will be interpreted in %.

Provide value of inhibition for this record tested with Tyrosine-protein kinase ABL2 (Homo sapiens) (UniProt P42684): O=C1Nc2ccc(-c3cccnc3)cc2C1=Cc1cc(Br)c(O)c(Br)c1
3.5

Query inhibition on Tyrosine-protein kinase ABL2 (Homo sapiens) (UniProt P42684) for N#Cc1cccc(Nc2nccc(-c3cnn4ncccc34)n2)c1
11.9

Notebook: pull reported inhibition for Tyrosine-protein kinase ABL2 (Homo sapiens) (UniProt P42684), entry Cc1nc(-c2ccccc2)n2nc(NCCCN3CCOCC3)ncc12
2.85

Lab request: please report inhibition under test system Tyrosine-protein kinase ABL2 (Homo sapiens) (UniProt P42684) for O=C1Nc2ccccc2/C1=C/Nc1ccc2[nH]c(=O)[nH]c2c1
7.75

Lab note: need inhibition for CC(C)c1ccc(Nc2nccc(-c3cnn4ncccc34)n2)cc1 on Tyrosine-protein kinase ABL2 (Homo sapiens) (UniProt P42684), anyone have it?
4.44

Report inhibition for COc1cc2ncn(-c3cc(OCc4ccccc4S(C)(=O)=O)c(C#N)s3)c2cc1OC tested on Tyrosine-protein kinase ABL2 (Homo sapiens) (UniProt P42684).
4.77

For Tyrosine-protein kinase ABL2 (Homo sapiens) (UniProt P42684), provide inhibition of COc1cc2ncnc(Nc3ccc(C)c(O)c3)c2cc1OC please.
15.8

What measured inhibition is associated with CS(=O)(=O)CCNCc1nc(-c2ccc3ncnc(Nc4ccc(OCc5cccc(C(F)(F)F)c5)cc4)c3c2)cs1 on Tyrosine-protein kinase ABL2 (Homo sapiens) (UniProt P42684)?
1.49

# query: inhibition | item COc1cc2ncnc(Nc3ccc4c(cnn4Cc4ccccc4)c3)c2cc1OC | system: Tyrosine-protein kinase ABL2 (Homo sapiens) (UniProt P42684)
0.85

Provide the documented inhibition with Tyrosine-protein kinase ABL2 (Homo sapiens) (UniProt P42684) as the system for NS(=O)(=O)c1ccc(NC=C2C(=O)Nc3ccc4ncsc4c32)cc1
5.56

So what inhibition did FC(F)(F)c1ccc(-c2nn3ncccc3c2-c2ccnc(Nc3ccc4c(c3)OCCO4)n2)cc1 get with Tyrosine-protein kinase ABL2 (Homo sapiens) (UniProt P42684)?
5.58

So what inhibition did CN(C)CCCn1c(-c2nonc2N)nc2cnccc21 get with Tyrosine-protein kinase ABL2 (Homo sapiens) (UniProt P42684)?
3.56

Entry COc1ccc(-c2nn3ncccc3c2-c2ccnc(Nc3cccc(C(F)(F)F)c3)n2)cc1 , system Tyrosine-protein kinase ABL2 (Homo sapiens) (UniProt P42684): what inhibition was measured?
2.28

What is its inhibition for Tyrosine-protein kinase ABL2 (Homo sapiens) (UniProt P42684)? Entry: Cc1ccc(NC(=O)CC2CC2)cc1-c1ccc(C(=O)NCC2CC2)cc1
8.79

// lookup inhibition | system=Tyrosine-protein kinase ABL2 (Homo sapiens) (UniProt P42684) | key= N#Cc1c(NC(=O)c2ccccc2F)sc2c1CCCC2
-0.22

Give inhibition (Tyrosine-protein kinase ABL2 (Homo sapiens) (UniProt P42684)) of the following compound: COC(=O)c1cncc(/C=C/c2c(C)cc(O)cc2C)c1
12.5

Request - read-out inhibition | tested on Tyrosine-protein kinase ABL2 (Homo sapiens) (UniProt P42684) | compound C[C@@H](Oc1cc(-n2cnc3ccc(OCC4CCN(C)CC4)cc32)sc1C(N)=O)c1ccccc1C(F)(F)F;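 also: values are mean percent inhibition of ARG (ABL2), measured within the GSK PKIS set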
0.15

What measured inhibition is associated with COC(=O)Nc1nc2cc(Oc3ccc(NC(=O)Nc4cccc(Br)c4)cc3)ccc2[nH]1 on Tyrosine-protein kinase ABL2 (Homo sapiens) (UniProt P42684)?
16.1

What inhibition appears in the records for this compound with Tyrosine-protein kinase ABL2 (Homo sapiens) (UniProt P42684)? Cc1ccc(O)cc1Nc1ccnc2ccc(S(C)(=O)=O)cc12
80.8

For Tyrosine-protein kinase ABL2 (Homo sapiens) (UniProt P42684), provide inhibition of Cc1ccc(Nc2ccnc(Nc3cccc(C(N)=O)c3)n2)cc1O please.
50.8

====

Target of assay: High affinity nerve growth factor receptor (Homo sapiens) (UniProt P04629);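 also: each value is a mean of replicate percent inhibition readings against TRKA kinase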
Sequence (P04629 33-796 limits assumed): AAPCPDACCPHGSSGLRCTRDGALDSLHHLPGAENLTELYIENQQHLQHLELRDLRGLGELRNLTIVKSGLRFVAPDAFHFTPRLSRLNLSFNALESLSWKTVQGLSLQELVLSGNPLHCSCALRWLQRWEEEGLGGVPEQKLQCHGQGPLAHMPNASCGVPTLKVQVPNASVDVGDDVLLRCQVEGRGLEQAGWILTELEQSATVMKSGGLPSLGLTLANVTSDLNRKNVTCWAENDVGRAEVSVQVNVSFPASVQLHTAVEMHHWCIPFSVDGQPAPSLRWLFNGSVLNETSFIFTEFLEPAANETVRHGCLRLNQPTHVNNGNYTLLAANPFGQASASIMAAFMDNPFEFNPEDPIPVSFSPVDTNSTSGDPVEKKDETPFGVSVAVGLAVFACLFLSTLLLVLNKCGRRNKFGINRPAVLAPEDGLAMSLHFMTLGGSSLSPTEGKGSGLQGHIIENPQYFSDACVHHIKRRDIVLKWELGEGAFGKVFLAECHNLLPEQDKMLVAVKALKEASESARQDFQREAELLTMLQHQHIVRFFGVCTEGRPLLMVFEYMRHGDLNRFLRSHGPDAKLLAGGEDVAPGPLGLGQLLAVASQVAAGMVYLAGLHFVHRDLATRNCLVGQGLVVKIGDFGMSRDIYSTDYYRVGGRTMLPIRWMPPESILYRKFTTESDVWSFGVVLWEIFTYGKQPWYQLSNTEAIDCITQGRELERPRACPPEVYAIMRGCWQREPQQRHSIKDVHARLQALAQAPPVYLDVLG
Test parameters: at 0.1 µM
Reported metric: inhibition (%)
Form entry: value (%) — number only.

Given the entry CC(C)c1ccc(Nc2nccc(-c3cnn4ncccc34)n2)cc1 , report its measured inhibition.
3.65

# query: inhibition of entry NC(=O)c1sc(-n2cnc3ccccc32)cc1OCc1ccccc1Br
1.54

Given the entry NS(=O)(=O)c1ccc(-c2cc3ccncc3cc2OCc2ccccc2)cc1 , report its measured inhibition.
4.15

So what does the record say about inhibition for CN(c1ccc(NC(=O)Nc2ccc(OC(F)(F)F)cc2)cc1)c1ccnc(Nc2cccc(S(N)(=O)=O)c2)n1 ?
30

Suppose we examine the compound COc1cc2ncn(-c3cc(OCc4ccccc4S(C)(=O)=O)c(C#N)s3)c2cc1OC ; what inhibition value has been reported?
5.48

// returns reported inhibition for input C[C@@H](Oc1cc(-n2cnc3ccc(OCC4CCN(C)CC4)cc32)sc1C(N)=O)c1ccccc1C(F)(F)F
-0.37

Requested read-out: inhibition. Entry: Cc1cc(O)cc(C)c1/C=C/c1cncc(C(=O)N(C)C)c1
2.88

Would you mind telling me what inhibition value was observed for COc1cccc(-n2nc(C)c3c(N/N=C(\C)c4ccncc4)ncnc32)c1 ?
0.99

Which inhibition is listed for FC(F)(F)c1ccc(-c2nn3ncccc3c2-c2ccnc(Nc3ccc4c(c3)OCCO4)n2)cc1 ?
-1.21

// returns reported inhibition for input c1ccc(Nc2ncc(-c3ccccc3)o2)cc1
0.26

I am curious: what inhibition value has been reported for CC(C)c1ccc2c(c1)NC(=O)/C2=N/Nc1ccc(S(N)(=O)=O)cc1 ?
3.96

inhibition for Cc1cc(Cl)cc2c1NC(=O)C2=NNc1ccc(S(N)(=O)=O)cc1 ?
-1.82

Entry under review: CS(=O)(=O)CCNCc1nc(-c2ccc3ncnc(Nc4ccc(OCc5cccc(C(F)(F)F)c5)cc4)c3c2)cs1 . Reported inhibition?
0.13

====

Target of assay: Serine/threonine-protein kinase SIK1 (Homo sapiens);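 also: mean inhibition value from the GSK PKIS profiling set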
Test parameters: at 1 µM
So I've got a bunch of compounds here, and I need their inhibition values.
Give a bare numeral; the unit % is implied.

Fill in: inhibition of CCOc1nccc2c1nc(-c1nonc1N)n2CC is ___
5.99

// query inhibition value for entry COc1ccc(-c2nn3ncccc3c2-c2ccnc(Nc3cccc(C(F)(F)F)c3)n2)cc1
2.26

Field request: inhibition | item: COC(=O)c1cncc(/C=C/c2c(C)cc(O)cc2C)c1
84.3

Which inhibition value is on record for COc1ccc2ncnc(Nc3ccc(OCc4ccccc4)cc3)c2c1 ?
5.56

Which inhibition value belongs to c1ccc(Nc2ncc(-c3ccccc3)o2)cc1 ?
12.6

====

Target of assay: Fibroblast growth factor receptor 1 (Homo sapiens);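 also: values are reported as mean percent inhibition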
Test parameters: at 0.1 µM
Reported metric: inhibition (%)
State the answer as a number, implicitly in %.

Which value of inhibition has been reported for CCS(=O)(=O)c1ccc(OC)c(Nc2nccc(N(C)c3ccc4c(C)n[nH]c4c3)n2)c1 in the records?
8.89

Using the record for COc1cccc(-n2ncc3c(N/N=C/c4ccc(C)cc4)ncnc32)c1 , report its inhibition.
4.11

Suppose we examine the compound Oc1cccc(-c2nc(-c3ccccc3)[nH]c2-c2ccncc2)c1 ; what inhibition value has been reported?
1.95

Entry under review: CN(C)c1cc2c(Nc3ccc4c(cnn4Cc4ccccc4)c3)ncnc2cn1 . Reported inhibition?
2.28

Field request: inhibition | item: O=C1Nc2ccc(-c3cccnc3)cc2C1=Cc1cc(Br)c(O)c(Br)c1
4.47

Given the entry C[C@@H](Oc1cc(-n2cnc3ccc(OC[C@@H](O)CO)cc32)sc1C(N)=O)c1ccccc1Cl , report its measured inhibition.
-7.07

====

Target of assay: Misshapen-like kinase 1 (Homo sapiens) (UniProt Q8N4C8)
Sequence (Q8N4C8 whole entry, looked up): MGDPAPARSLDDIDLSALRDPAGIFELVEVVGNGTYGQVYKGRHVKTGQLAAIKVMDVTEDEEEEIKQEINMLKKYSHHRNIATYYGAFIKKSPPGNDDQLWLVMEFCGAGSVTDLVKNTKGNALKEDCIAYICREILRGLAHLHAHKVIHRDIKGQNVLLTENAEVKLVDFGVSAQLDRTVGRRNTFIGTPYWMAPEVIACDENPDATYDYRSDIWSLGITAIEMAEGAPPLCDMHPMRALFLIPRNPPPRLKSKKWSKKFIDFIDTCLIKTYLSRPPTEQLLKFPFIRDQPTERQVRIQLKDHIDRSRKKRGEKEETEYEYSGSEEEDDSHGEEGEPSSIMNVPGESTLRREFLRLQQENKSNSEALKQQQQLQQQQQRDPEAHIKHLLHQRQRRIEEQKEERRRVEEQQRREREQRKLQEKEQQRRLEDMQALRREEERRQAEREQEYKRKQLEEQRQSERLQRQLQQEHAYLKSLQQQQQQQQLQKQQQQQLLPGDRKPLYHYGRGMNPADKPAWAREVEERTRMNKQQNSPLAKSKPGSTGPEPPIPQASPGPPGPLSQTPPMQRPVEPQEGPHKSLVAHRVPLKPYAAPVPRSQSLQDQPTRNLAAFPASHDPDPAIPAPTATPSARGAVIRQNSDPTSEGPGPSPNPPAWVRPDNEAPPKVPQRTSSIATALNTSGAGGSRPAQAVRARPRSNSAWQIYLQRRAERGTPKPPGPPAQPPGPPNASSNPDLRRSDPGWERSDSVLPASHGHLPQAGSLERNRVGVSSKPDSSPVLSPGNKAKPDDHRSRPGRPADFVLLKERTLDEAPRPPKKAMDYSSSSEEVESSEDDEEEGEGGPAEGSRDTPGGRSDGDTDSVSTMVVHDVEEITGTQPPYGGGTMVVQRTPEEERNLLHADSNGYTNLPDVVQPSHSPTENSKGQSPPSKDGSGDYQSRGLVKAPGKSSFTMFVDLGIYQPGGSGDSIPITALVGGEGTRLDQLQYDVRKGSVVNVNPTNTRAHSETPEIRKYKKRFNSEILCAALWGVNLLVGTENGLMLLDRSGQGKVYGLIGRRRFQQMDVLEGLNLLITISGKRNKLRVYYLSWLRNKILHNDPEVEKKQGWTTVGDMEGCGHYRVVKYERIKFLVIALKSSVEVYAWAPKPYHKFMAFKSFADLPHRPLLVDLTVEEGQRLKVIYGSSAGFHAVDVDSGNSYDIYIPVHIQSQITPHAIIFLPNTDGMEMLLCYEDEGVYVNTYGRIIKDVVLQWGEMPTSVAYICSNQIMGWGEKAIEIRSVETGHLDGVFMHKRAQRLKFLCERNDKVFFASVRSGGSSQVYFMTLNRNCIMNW
Test parameters: at 1 µM
Description: GSK_PKIS: MINK mean inhibition at 1 uM [Nanosyn]
Would you mind telling me the reported inhibition of each entry?
The response must be a number in % with no trailing unit.

Consider the compound shown here: CCn1c(-c2nonc2N)nc2c(C#CC(C)(C)O)nc(OCCNC)cc21 What is its recorded inhibition?
5.87

Dear colleague, I am looking for the recorded inhibition of the following compound: NS(=O)(=O)c1ccc(-c2cc3ccncc3cc2OCc2ccccc2)cc1
5.92

Returns the measured inhibition for the input compound. Input: COc1cccc(-n2nc(C)c3c(N/N=C(\C)c4ccncc4)ncnc32)c1
6.12

====

Target of assay: Tyrosine-protein kinase FRK (Homo sapiens) (UniProt P42685);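 also: values are mean inhibition of PTK5 (FRK) kinase activity from the GSK PKIS screening set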
Sequence (P42685 whole entry): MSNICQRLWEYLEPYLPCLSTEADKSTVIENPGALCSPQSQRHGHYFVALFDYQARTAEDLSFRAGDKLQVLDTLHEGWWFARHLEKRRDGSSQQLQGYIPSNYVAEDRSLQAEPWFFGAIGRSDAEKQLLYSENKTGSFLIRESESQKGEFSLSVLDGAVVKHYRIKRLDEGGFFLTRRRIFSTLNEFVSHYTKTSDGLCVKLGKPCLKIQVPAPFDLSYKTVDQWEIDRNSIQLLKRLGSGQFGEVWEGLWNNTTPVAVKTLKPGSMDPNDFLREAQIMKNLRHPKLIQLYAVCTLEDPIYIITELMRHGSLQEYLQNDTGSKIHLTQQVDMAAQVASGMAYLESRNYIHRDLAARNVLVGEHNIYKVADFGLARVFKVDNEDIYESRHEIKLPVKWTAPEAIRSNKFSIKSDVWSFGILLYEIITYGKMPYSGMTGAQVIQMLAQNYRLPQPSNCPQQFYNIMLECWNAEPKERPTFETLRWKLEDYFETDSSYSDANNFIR
Test parameters: at 0.1 µM
Reported metric: inhibition (%)
Please respond with the number in % and leave the unit unwritten.

For the molecule COc1ccc(-c2nn3ncccc3c2-c2ccnc(Nc3cccc(C(F)(F)F)c3)n2)cc1 , what inhibition is on record?
1.12

Name the reported inhibition value associated with the molecule Cc1cc(Cl)cc2c1NC(=O)C2=NNc1ccc(S(N)(=O)=O)cc1
1.54

Look up inhibition for this molecule: Cc1ccc2c(c1)/C(=N/Nc1ccc(S(N)(=O)=O)cc1)C(=O)N2
-0.61

Endpoint output: inhibition of CN(C)C(=O)O[C@@H]1CN[C@@H](C#Cc2cc3ncnc(Nc4ccc(OCc5cccc(F)c5)c(Cl)c4)c3s2)C1 . Value?
0.71

# get_value(readout='inhibition', item= Nc1nccc(-c2c(-c3ccc(F)cc3)ncn2CCCN2CCOCC2)n1 )
1.5

Need inhibition of CS(=O)(=O)Nc1cccc(-c2ccc3c(NC(=O)C4CC4)n[nH]c3c2)c1 , thanks.
0.86

Which inhibition value belongs to NC(=O)c1cccc(Nc2nccc(Nc3cccc(F)c3)n2)c1 ?
1.18
